Organism: Rattus norvegicus
Assay: Open TG-GATES - Regimen: Single
Assay type: toxicity, organism-based, Sprague-Dawley
Design: regimen Single, gender Male, age 6 weeks
Settings: in vivo, po, 0 mg/kg, 3 h, tissue Plasma, route gavage, dose level Control
MEASUREMENT_TYPE: PL

1) OCCN1CCN(CCCN2c3ccccc3Sc3ccc(C(F)(F)F)cc32)CC1 [FLUPHENAZINE] ... 154.2 mg/dL
2) C[C@H]1O[C@H](O[C@H]2[C@H](O)[C@@H](O)[C@@H](O[C@H]3[C@H](O)[C@@H](O)C(O)O[C@@H]3CO)O[C@@H]2CO)[C@H](O)[C@@H](O)[C@@H]1N[C@H]1C=C(CO)[C@@H](O)[C@H](O)[C@H]1O (some centres undefined) [ACARBOSE] ... 133 mg/dL
3) Cc1cccc(C)c1OCC(C)N (centres undefined) [MEXILETINE] ... 132.4 mg/dL
4) Cc1ccc2cc3c(ccc4ccccc43)c3c2c1CC3 [3-METHYLCHOLANTHRENE] ... 163.8 mg/dL
5) O=[N+]([O-])c1ccc(O)c([N+](=O)[O-])c1 [2,4-DINITROPHENOL] ... 150.4 mg/dL
6) Cn1cc[nH]c1=S [METHIMAZOLE] ... 143.6 mg/dL
7) C[C@H]1C(=O)O[C@@H]2CCN3CC=C(COC(=O)[C@](C)(O)[C@]1(C)O)[C@H]23 [MONOCROTALINE] ... 141.8 mg/dL
8) CCOC(=O)C(C)(C)Oc1ccc(Cl)cc1 [CLOFIBRATE] ... 184 mg/dL
9) C=C(C)[C@H]1Cc2c(ccc3c2O[C@@H]2COc4cc(OC)c(OC)cc4[C@@H]2C3=O)O1 [ROTENONE] ... 139.6 mg/dL

====

Species on record: Rattus norvegicus
Assay: Open TG-GATES - Regimen: Daily Repeat
Format: toxicity, organism-based, Sprague-Dawley
Parameters: regimen Daily Repeat, gender Male, age 6 weeks
Details: in vivo, po, 0 mg/kg, […], tissue Plasma, route gavage, dose level Control, time 7 day
Let's look at some compounds and their measured AST.
MEASUREMENT_TYPE: AST (IU/L)

1. CCOC(=O)C(C)(C)Oc1ccc(Cl)cc1 [CLOFIBRATE] ... 64.6
2. O=[N+]([O-])c1ccc(O)c([N+](=O)[O-])c1 [2,4-DINITROPHENOL] ... 68.8
3. C=C(C)[C@H]1Cc2c(ccc3c2O[C@@H]2COc4cc(OC)c(OC)cc4[C@@H]2C3=O)O1 [ROTENONE] ... 60.6
4. C[C@H]1C(=O)O[C@@H]2CCN3CC=C(COC(=O)[C@](C)(O)[C@]1(C)O)[C@H]23 [MONOCROTALINE] ... 65
5. Cn1cc[nH]c1=S [METHIMAZOLE] ... 75.8
6. OCCN1CCN(CCCN2c3ccccc3Sc3ccc(C(F)(F)F)cc32)CC1 [FLUPHENAZINE] ... 61.6
7. C[C@H]1O[C@H](O[C@H]2[C@H](O)[C@@H](O)[C@@H](O[C@H]3[C@H](O)[C@@H](O)C(O)O[C@@H]3CO)O[C@@H]2CO)[C@H](O)[C@@H](O)[C@@H]1N[C@H]1C=C(CO)[C@@H](O)[C@H](O)[C@H]1O (some centres undefined) [ACARBOSE] ... 66.6
8. O=C1CN(/N=C/c2ccc([N+](=O)[O-])o2)C(=O)N1 [NITROFURANTOIN] ... 63.2
9. Cc1cccc(C)c1OCC(C)N (centres undefined) [MEXILETINE] ... 65
